The origin of these recorded values is BindingDB's records for PubMed 9023294.

Parameter Ki: see the listing below.
Molecular target: Neurotensin (Cavia porcellus, UniProt P32560)
Kindly provide the numeric value in nM only, without the unit symbol.

compound	Ki / nM
COc1cccc(OC)c1-c1cc(C(=O)NC2(C(=O)O)C3CC4CC(C3)CC2C4)nn1-c1ccc(C(=O)N(C)CCCN(C)C)cc1C(C)C (configuration not stated) [SR142948A]	0.17

// next entry
The reported Neurotensin (Cavia porcellus, UniProt P32560) Ki of COc1cccc(OC)c1-c1cc(C(=O)NC2(C(=O)O)C3CC4CC(C3)CC2C4)nn1-c1ccnc2cc(Cl)ccc12 (configuration not stated) is 3.9

---

Biological target: Neurotensin/neuromedin N (Human, UniProt P30990)
Sequence (P30990 whole entry): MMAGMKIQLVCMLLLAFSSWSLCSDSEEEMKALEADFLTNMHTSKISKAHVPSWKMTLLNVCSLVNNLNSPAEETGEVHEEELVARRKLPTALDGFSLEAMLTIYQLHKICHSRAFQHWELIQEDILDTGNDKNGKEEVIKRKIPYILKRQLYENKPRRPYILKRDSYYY
endpoint: Ki
Write the numeric value and append its unit.

The compound listed as COc1cccc(OC)c1-c1cc(C(=O)NC2(C(=O)O)C3CC4CC(C3)CC2C4)nn1-c1ccc(C(=O)N(C)CCCN(C)C)cc1C(C)C (stereo unspecified) [SR142948A] shows Ki equal to 0.28 nM
